Test: qHTS assay to identify small molecule HDAC inhibitors - cell viability counter screen (AID 1259365); further: on the % scale 0 is the no-effect control and ±100 the full control effect; nearly all actives have a fitted effect of over 50% in size
Details: HCT-116 viability, CellTiter-Glo ATP luminescence, 2 h; series mostly up to 92.4 µM
Active and inactive are the calls of the source. The call rests on the fitted dose curve; in most records, active means well fitted cell-killing curve with a large enough effect in the repeat runs; inconclusive means weak or mixed curves, or effect the other way; inactive means flat fitted curve, though single readings scatter.
Attribute measured: outcome

>  <Compound>
CCC(=O)O[C@H]1[C@H](O[C@@H]2[C@@H](C)[C@H](O[C@H]3C[C@@](C)(OC)[C@@H](O)[C@H](C)O3)[C@@H](C)C(=O)O[C@H](CC)[C@@](C)(O)[C@H](O)[C@@H](C)C(=O)[C@H](C)C[C@@]2(C)O)O[C@H](C)C[C@@H]1N(C)C

>  <Attribute measured>
outcome

>  <Endpoint result>
inactive

$$$$
>  <Compound>
CCOC(=O)C(C)Oc1ccc(Oc2cnc3cc(Cl)ccc3n2)cc1 (stereo not drawn)

>  <Attribute measured>
outcome

>  <Endpoint result>
inactive

$$$$
>  <Compound>
Nc1cc([N+](=O)[O-])ccc1C(=O)O

>  <Attribute measured>
outcome

>  <Endpoint result>
inactive

$$$$

====

Assay: A CellTox Green Cytotoxicity Assay to monitor cytotoxicity in HepG2 cells - 8 hour (AID 1224890); further: on the % scale 0 is the no-effect control and ±100 the full control effect; nearly all actives have a fitted effect of over 45% in size
Conditions: CellTox Green fluorescence; series mostly up to 76.8 µM
Records with an inconclusive call do not appear. Calls of active or inactive are those of the source. The call rests on the fitted dose curve; in most records, active means well fitted activation curve with a large enough effect in the repeat runs; inconclusive means weak or mixed curves; inactive means flat fitted curve, though single readings scatter.
Attribute measured: outcome

>  <Record smiles>
Cc1ccc(N)c([N+](=O)[O-])c1

>  <Attribute measured>
outcome

>  <Endpoint result>
inactive

$$$$
>  <Record smiles>
OCCNCCO

>  <Attribute measured>
outcome

>  <Endpoint result>
inactive

$$$$
>  <Record smiles>
O=C(O)CCCCCCCCCCCC(=O)O

>  <Attribute measured>
outcome

>  <Endpoint result>
inactive

$$$$

====

Target: Glucocorticoid receptor (Homo sapiens) (UniProt P04150)
Sequence (P04150 whole entry, looked up): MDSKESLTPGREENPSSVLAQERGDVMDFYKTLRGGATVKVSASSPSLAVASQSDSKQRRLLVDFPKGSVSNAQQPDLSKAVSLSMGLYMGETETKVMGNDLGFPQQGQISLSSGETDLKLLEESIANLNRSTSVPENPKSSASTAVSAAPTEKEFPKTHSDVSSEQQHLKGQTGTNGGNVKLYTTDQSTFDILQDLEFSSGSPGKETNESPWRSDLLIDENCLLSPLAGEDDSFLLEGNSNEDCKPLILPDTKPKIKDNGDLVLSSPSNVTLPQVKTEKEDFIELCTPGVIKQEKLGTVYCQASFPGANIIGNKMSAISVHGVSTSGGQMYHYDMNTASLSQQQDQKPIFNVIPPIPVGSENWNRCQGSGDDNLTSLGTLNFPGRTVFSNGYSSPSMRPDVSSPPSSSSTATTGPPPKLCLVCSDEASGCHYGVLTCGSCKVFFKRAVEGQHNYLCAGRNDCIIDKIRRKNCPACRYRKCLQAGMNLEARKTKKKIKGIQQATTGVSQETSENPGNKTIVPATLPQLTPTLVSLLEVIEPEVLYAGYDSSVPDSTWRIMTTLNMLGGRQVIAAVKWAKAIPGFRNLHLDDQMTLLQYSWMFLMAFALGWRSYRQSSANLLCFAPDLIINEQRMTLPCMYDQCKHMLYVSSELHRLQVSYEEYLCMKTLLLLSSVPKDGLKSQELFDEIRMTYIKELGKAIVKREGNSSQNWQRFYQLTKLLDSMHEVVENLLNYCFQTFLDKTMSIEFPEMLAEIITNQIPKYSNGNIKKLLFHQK
Test: qHTS assay to identify small molecule antagonists of the glucocorticoid receptor (GR) signaling pathway (AID 720692)
Conditions: GR-bla HeLa, beta-lactamase FRET ratio, dexamethasone-stimulated, 18 h; series mostly up to 58.5 µM
Inconclusive results are not listed. Activity calls are given as the source filed them. The call rests on the fitted dose curve; in most records, active means well fitted inhibition curve with a large enough effect in the signal ratio in the repeat runs (not every such curve was filed as active); inconclusive means weak or mixed curves, or effect the other way; inactive means no such curve, though single readings can be large or run the other way; the % refers to the signal ratio.
Possible outcomes: active, inactive

>  <Record smiles>
CCCOCCO

>  <Experimental target>
Glucocorticoid receptor (Homo sapiens) (UniProt P04150)

>  <Class assignment>
inactive

$$$$
>  <Record smiles>
Nc1ccc(N)c(Cl)c1

>  <Experimental target>
Glucocorticoid receptor (Homo sapiens) (UniProt P04150)

>  <Class assignment>
inactive

$$$$
>  <Record smiles>
COC(=O)c1ccc(C)cc1

>  <Experimental target>
Glucocorticoid receptor (Homo sapiens) (UniProt P04150)

>  <Class assignment>
inactive

$$$$
>  <Record smiles>
O=Cc1ccccc1C=O

>  <Experimental target>
Glucocorticoid receptor (Homo sapiens) (UniProt P04150)

>  <Class assignment>
active

$$$$
>  <Record smiles>
CC(=O)Nc1ccc2c(c1)Cc1cc(NC(C)=O)ccc1-2

>  <Experimental target>
Glucocorticoid receptor (Homo sapiens) (UniProt P04150)

>  <Class assignment>
inactive

$$$$
>  <Record smiles>
CC(=O)OC(C)C

>  <Experimental target>
Glucocorticoid receptor (Homo sapiens) (UniProt P04150)

>  <Class assignment>
inactive

$$$$
>  <Record smiles>
CCCCCCCCCCCCCO

>  <Experimental target>
Glucocorticoid receptor (Homo sapiens) (UniProt P04150)

>  <Class assignment>
inactive

$$$$
>  <Record smiles>
O=C1CCc2ccccc2O1

>  <Experimental target>
Glucocorticoid receptor (Homo sapiens) (UniProt P04150)

>  <Class assignment>
inactive

$$$$
>  <Record smiles>
Clc1ccc(Sc2cc(Cl)c(Cl)cc2Cl)cc1

>  <Experimental target>
Glucocorticoid receptor (Homo sapiens) (UniProt P04150)

>  <Class assignment>
inactive

$$$$
>  <Record smiles>
CN(C)/N=N/c1nc[nH]c1C(N)=O

>  <Experimental target>
Glucocorticoid receptor (Homo sapiens) (UniProt P04150)

>  <Class assignment>
inactive

$$$$
>  <Record smiles>
C=C[Si](OCCOC)(OCCOC)OCCOC

>  <Experimental target>
Glucocorticoid receptor (Homo sapiens) (UniProt P04150)

>  <Class assignment>
inactive

$$$$
>  <Record smiles>
CCC/C=C/C=O

>  <Experimental target>
Glucocorticoid receptor (Homo sapiens) (UniProt P04150)

>  <Class assignment>
inactive

$$$$
>  <Record smiles>
[Na+]

>  <Experimental target>
Glucocorticoid receptor (Homo sapiens) (UniProt P04150)

>  <Class assignment>
inactive

$$$$

====

Biological target: Cytochrome P450 2C19 (Homo sapiens)
Experiment: Cytochrome P450 Family 2 Subfamily C Member 19 (CYP2C19) small molecule antagonists: luciferase reporter qHTS assay (AID 1671197); further: nearly all actives have a fitted effect of over 65% in size
Conditions: P450-Glo CYP2C19 enzyme, luciferin luminescence, 1 h; series mostly up to 115 µM
Inconclusive results are not listed. Activity calls are given as the source filed them. Calls follow the shape of the dose curve; as a rule, active = well fitted inhibition curve with a large enough effect in the repeat runs; inconclusive = weak or mixed curves; inactive = no such curve, though single readings can be large or run the other way.
Classes used: active, inactive

>  <Record smiles>
O=Cc1ccccc1C=O

>  <Class assignment>
inactive

$$$$
>  <Record smiles>
C=CCCCCCCCCCC

>  <Class assignment>
inactive

$$$$
>  <Record smiles>
C=CC(=O)OCCCC

>  <Class assignment>
inactive

$$$$
>  <Record smiles>
C1COCCN1

>  <Class assignment>
inactive

$$$$
>  <Record smiles>
Nc1cc([N+](=O)[O-])ccc1C(=O)O

>  <Class assignment>
inactive

$$$$
>  <Record smiles>
CC1=CC(C)(C)Nc2ccccc21

>  <Class assignment>
active

$$$$
>  <Record smiles>
c1ccc2ncccc2c1

>  <Class assignment>
inactive

$$$$
>  <Record smiles>
C=CCOC(=O)C(=C)C

>  <Class assignment>
inactive

$$$$
>  <Record smiles>
O=C(O)c1ccc(O)cc1

>  <Class assignment>
inactive

$$$$
>  <Record smiles>
CCCCCC=O

>  <Class assignment>
inactive

$$$$
>  <Record smiles>
O=S1(=O)CCCO1

>  <Class assignment>
inactive

$$$$
>  <Record smiles>
Cc1ccc(C(C)(C)C)cc1

>  <Class assignment>
inactive

$$$$
>  <Record smiles>
C=C[C@H]1CN2CC[C@H]1C[C@H]2[C@H](O)c1ccnc2ccc(OC)cc12

>  <Class assignment>
inactive

$$$$

====

Assay: qHTS assay to identify small molecule agonists of the retinoic acid receptor (RAR) signaling pathway (AID 1159553); on activation: on the % scale 0 is the no-effect control and ±100 the full control effect
Details: C3RL4 RARE luciferase reporter, agonist, 6 h
Results filed as inconclusive are left out. Activity calls are given as the source filed them. Calls come from the whole dose curve; as a rule, active = well fitted activation curve with a large enough effect in the repeat runs; inconclusive = weak or mixed curves, or effect the other way; inactive = no such curve, though single readings can be large or run the other way.
Labels: 1.0 for active, 0.0 for inactive

>  <Record smiles>
C[C@]12CC[C@@H]3c4ccc(O)cc4CC[C@H]3[C@@H]1CC[C@H]2O

>  <Class assignment>
0.0

$$$$
>  <Record smiles>
CCCCCCCCCCCCCO

>  <Class assignment>
0.0

$$$$
>  <Record smiles>
CC1(C)O[C@@H]2C[C@H]3[C@@H]4C[C@H](F)C5=CC(=O)C=C[C@]5(C)[C@@]4(F)[C@@H](O)C[C@]3(C)[C@]2(C(=O)CO)O1

>  <Class assignment>
0.0

$$$$
>  <Record smiles>
CNC[C@H](O)c1ccc(O)c(O)c1

>  <Class assignment>
0.0

$$$$
>  <Record smiles>
COc1ccc(-c2coc3cc(O)cc(O)c3c2=O)cc1

>  <Class assignment>
1.0

$$$$
>  <Record smiles>
C1CN(SSN2CCOCC2)CCO1

>  <Class assignment>
0.0

$$$$
>  <Record smiles>
Cc1ccc(N)c([N+](=O)[O-])c1

>  <Class assignment>
0.0

$$$$
>  <Record smiles>
CCO[Si](CCCNC(N)=O)(OCC)OCC

>  <Class assignment>
0.0

$$$$
>  <Record smiles>
[O-]/[N+](=N\O)c1ccccc1

>  <Class assignment>
1.0

$$$$
>  <Record smiles>
Nc1ccc(O)c(N)c1

>  <Class assignment>
0.0

$$$$
>  <Record smiles>
Cc1ccc(S(=O)(=O)O)cc1C

>  <Class assignment>
0.0

$$$$

====

Target: Nuclear receptor subfamily 1 group I member 3 (Homo sapiens) (UniProt Q14994)
Sequence (Q14994 whole entry, looked up): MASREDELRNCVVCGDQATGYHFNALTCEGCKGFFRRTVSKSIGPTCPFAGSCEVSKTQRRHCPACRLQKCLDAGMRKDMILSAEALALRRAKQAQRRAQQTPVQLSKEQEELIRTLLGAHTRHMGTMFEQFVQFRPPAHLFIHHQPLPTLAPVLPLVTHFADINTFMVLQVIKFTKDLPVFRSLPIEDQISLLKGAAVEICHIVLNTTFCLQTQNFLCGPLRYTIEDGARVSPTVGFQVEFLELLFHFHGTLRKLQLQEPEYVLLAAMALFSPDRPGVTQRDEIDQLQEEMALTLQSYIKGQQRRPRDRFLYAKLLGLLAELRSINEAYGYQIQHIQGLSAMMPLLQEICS
Test: qHTS assay to identify small molecule antagonists of the constitutive androstane receptor (CAR) signaling pathway (AID 1224838);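 further: HepG2 cells stably expressing hCAR with CYP2B6 luciferase reporter stimulated by CITCO; nearly all actives have a fitted effect of over 40% in size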
Conditions: HepG2-CYP2B6-hCAR luciferase, CITCO-stimulated, 24 h; series mostly up to 92.4 µM
Results filed as inconclusive are left out. Active and inactive are the calls of the source. Calls follow the shape of the dose curve; as a rule, active = well fitted inhibition curve with a large enough effect in the repeat runs; inconclusive = weak or mixed curves, or effect the other way; inactive = no such curve, though single readings can be large or run the other way.
Possible outcomes: class 1 for active, class 0 for inactive

>  <Compound>
CCOC(=O)C(C)Oc1ccc(Oc2cnc3cc(Cl)ccc3n2)cc1 (stereo unspecified)

>  <Class assignment>
class 0

$$$$
>  <Compound>
O=S1(=O)CCCO1

>  <Class assignment>
class 0

$$$$
>  <Compound>
COC(=O)CC(=O)OC

>  <Class assignment>
class 0

$$$$
>  <Compound>
c1ccc2c(c1)[nH]c1ccccc12

>  <Class assignment>
class 0

$$$$
>  <Compound>
CC(C)(Oc1ccc(Cl)cc1)C(=O)O

>  <Class assignment>
class 0

$$$$
>  <Compound>
c1ccc2cc3ccccc3cc2c1

>  <Class assignment>
class 0

$$$$
>  <Compound>
CN1CCOCC1

>  <Class assignment>
class 0

$$$$
>  <Compound>
C=CCOC(=O)C(=C)C

>  <Class assignment>
class 0

$$$$
>  <Compound>
Cc1ccc(C(C)(C)C)cc1

>  <Class assignment>
class 0

$$$$
>  <Compound>
CN(C)C

>  <Class assignment>
class 0

$$$$
>  <Compound>
Cc1ccc(C(C)(C)C)c(O)c1

>  <Class assignment>
class 1

$$$$
>  <Compound>
C=CC(C)(O)CCC=C(C)C (stereo unspecified)

>  <Class assignment>
class 0

$$$$
>  <Compound>
Oc1c(Cl)ccc(Cl)c1Cl

>  <Class assignment>
class 0

$$$$
>  <Compound>
Cc1ccc(N)c([N+](=O)[O-])c1

>  <Class assignment>
class 0

$$$$
>  <Compound>
COc1ccc(-c2coc3cc(O)cc(O)c3c2=O)cc1

>  <Class assignment>
class 0

$$$$
>  <Compound>
c1ccc2ncccc2c1

>  <Class assignment>
class 0

$$$$
>  <Compound>
ClC/C=C/CCl

>  <Class assignment>
class 0

$$$$
>  <Compound>
C[C@]12CC[C@@H]3c4ccc(O)cc4CC[C@H]3[C@@H]1CC[C@H]2O

>  <Class assignment>
class 0

$$$$
>  <Compound>
O=C(O)CCCC(=O)O

>  <Class assignment>
class 0

$$$$
>  <Compound>
C=C[C@H]1CN2CC[C@H]1C[C@H]2[C@H](O)c1ccnc2ccc(OC)cc12

>  <Class assignment>
class 0

$$$$
>  <Compound>
Cc1ccc(C)c(O)c1

>  <Class assignment>
class 0

$$$$
>  <Compound>
Brc1nc2ccccc2s1

>  <Class assignment>
class 0

$$$$
>  <Compound>
Nc1ccc2c(c1)C(=O)c1ccccc1C2=O

>  <Class assignment>
class 0

$$$$
>  <Compound>
COc1ccc(C(=O)c2ccccc2O)c(O)c1

>  <Class assignment>
class 0

$$$$
>  <Compound>
[O-]/[N+](=N\O)c1ccccc1

>  <Class assignment>
class 0

$$$$
>  <Compound>
CCCCCCCCCCC(CO)CCCCCCCC (stereo unspecified)

>  <Class assignment>
class 0

$$$$
>  <Compound>
CCCCCCCCCCCCO

>  <Class assignment>
class 0

$$$$
>  <Compound>
O=C(O)c1ccc(O)cc1

>  <Class assignment>
class 0

$$$$
>  <Compound>
C=C[Si](OCCOC)(OCCOC)OCCOC

>  <Class assignment>
class 0

$$$$
>  <Compound>
C=CCCCCCCCCCC

>  <Class assignment>
class 0

$$$$
>  <Compound>
CCCCCC=O

>  <Class assignment>
class 0

$$$$
>  <Compound>
CC1=CC(C)(C)Nc2ccccc21

>  <Class assignment>
class 0

$$$$
>  <Compound>
CC(=O)[C@@]1(O)CC[C@H]2[C@@H]3C[C@H](C)C4=CC(=O)C=C[C@]4(C)[C@@]3(F)[C@@H](O)C[C@@]21C

>  <Class assignment>
class 0

$$$$
>  <Compound>
Nc1ccc(O)c(N)c1

>  <Class assignment>
class 0

$$$$
>  <Compound>
COCCOCCOCCO

>  <Class assignment>
class 0

$$$$
>  <Compound>
CNC[C@H](O)c1ccc(O)c(O)c1

>  <Class assignment>
class 0

$$$$
